# Test system: T1, THAP1 THAP domain F81L (human, UniProt Q9NVV9 1-81, F81L)
# T1 sequence: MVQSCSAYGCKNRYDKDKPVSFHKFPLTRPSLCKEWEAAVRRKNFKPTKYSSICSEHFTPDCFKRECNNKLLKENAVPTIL
# Method summary: fluorescence quenching
Metric: Kd (nM)
Use nM as the unit, but write only the number.

Name the recorded Kd for RRM1 16-bp DNA probe (dsDNA) DNA 1: GCTTGTGTGGGCAGCG DNA 2: CGCTGCCCACACAAGC .
100
